# test target: ΔF508-CFTR (Homo sapiens, UniProt P13569, DEL508-508)
# Construct: expressed in transfected cells
# Sequence (P13569 with tags, fused parts or gaps DEL508-508): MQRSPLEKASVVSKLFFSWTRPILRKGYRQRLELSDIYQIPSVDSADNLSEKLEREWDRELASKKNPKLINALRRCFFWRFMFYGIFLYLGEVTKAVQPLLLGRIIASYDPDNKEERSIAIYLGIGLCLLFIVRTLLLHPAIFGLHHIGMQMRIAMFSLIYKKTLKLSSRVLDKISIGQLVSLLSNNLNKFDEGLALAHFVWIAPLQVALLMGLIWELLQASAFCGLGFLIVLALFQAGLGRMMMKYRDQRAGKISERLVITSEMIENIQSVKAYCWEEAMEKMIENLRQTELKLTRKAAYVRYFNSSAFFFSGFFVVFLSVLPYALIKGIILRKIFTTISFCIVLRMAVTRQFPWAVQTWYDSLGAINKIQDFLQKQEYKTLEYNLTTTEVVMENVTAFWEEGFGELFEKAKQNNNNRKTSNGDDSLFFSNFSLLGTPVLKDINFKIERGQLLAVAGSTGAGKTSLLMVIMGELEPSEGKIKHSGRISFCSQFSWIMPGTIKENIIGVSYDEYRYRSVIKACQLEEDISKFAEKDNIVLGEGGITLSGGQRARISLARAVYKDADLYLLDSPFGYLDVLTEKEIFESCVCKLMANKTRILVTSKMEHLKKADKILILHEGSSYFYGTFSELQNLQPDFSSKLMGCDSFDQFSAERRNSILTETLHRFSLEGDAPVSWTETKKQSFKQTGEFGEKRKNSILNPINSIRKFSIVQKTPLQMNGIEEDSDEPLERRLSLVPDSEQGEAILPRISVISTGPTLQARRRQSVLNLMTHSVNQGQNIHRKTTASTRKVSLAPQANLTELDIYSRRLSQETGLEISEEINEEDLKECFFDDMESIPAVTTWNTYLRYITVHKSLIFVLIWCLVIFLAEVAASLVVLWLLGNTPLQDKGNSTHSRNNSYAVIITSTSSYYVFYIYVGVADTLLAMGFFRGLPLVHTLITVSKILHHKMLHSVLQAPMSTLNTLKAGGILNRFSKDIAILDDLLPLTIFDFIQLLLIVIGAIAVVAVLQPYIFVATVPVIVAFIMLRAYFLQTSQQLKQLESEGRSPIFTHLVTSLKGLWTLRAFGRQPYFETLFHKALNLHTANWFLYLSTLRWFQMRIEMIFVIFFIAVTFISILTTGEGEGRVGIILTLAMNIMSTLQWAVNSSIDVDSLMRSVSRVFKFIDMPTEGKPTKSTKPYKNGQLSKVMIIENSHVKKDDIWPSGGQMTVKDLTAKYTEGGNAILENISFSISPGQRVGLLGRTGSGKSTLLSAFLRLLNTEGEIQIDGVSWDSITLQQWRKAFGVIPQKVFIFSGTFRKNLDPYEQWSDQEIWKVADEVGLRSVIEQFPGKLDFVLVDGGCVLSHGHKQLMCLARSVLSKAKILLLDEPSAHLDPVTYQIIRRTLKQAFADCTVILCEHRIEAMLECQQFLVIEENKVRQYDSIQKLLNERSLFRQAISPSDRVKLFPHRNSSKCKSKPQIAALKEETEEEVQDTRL
# assay procedure: Membrane potential optical assay (FRET/VIPR), identification of correction compounds
# Assay type: cell-based
# assay context: relative efficacy
observable: Emax

What does the record list as Emax for CC(c1nc2ccc(-c3nnn[nH]3)cc2c(=O)n1C)N1CCN(S(=O)(=O)c2ccc(Cl)cc2)CC1 (centres unmarked) ?
> 100%

Emax for COc1ccc(S(=O)(=O)N2CCN(C(C)c3nc(OC4CCC5CC4C5)c4ccccc4n3)CC2)cc1 (centres unmarked) ?
> 100%

Need Emax of CC(c1nc2cccc(Cl)c2c(=O)n1C)N1CCN(S(=O)(=O)c2ccc(Br)cc2)CC1 (centres unmarked) , thanks.
25 to 100%

Find the recorded Emax belonging to COCCn1c(C(C)N2CCN(S(=O)(=O)c3ccc(Br)cc3)CC2)nc2ccccc2c1=O (centres unmarked) and report it.
> 100%

Find the recorded Emax belonging to CCCn1c(C(C)N2CCN(C(=O)Nc3ccc(F)cc3F)CC2)nc2ccccc2c1=O (centres unmarked) and report it.
25 to 100%

Would you kindly share the measured Emax for Cc1cccc(NC(=O)N2CCN(C(C)c3nc4ccc(Cl)cc4c(=O)n3C)CC2C)c1 (centres unmarked) ?
25 to 100%

Look up Emax: COc1ccc(S(=O)(=O)N2CCN(C(C)c3nc(N4CC=CC4)c4ccccc4n3)CC2)cc1 (centres unmarked)
> 100%

Could you share which Emax value was measured for COc1ccc(S(=O)(=O)N2CCN(C(C)c3nc(N4CCC[C@@H]4C(=O)O)c4ccccc4n3)CC2)cc1 (some centres unmarked) ?
< 25%

---

Task for the reader: assign each of the following compounds its reported Emax.
# test target: ΔF508-CFTR (Homo sapiens, UniProt P13569, DEL508-508)
# Construct: expressed in transfected cells
# assay procedure: Membrane potential optical assay (FRET/VIPR), identification of correction compounds
# Assay type: cell-based
# assay context: relative efficacy

Record request: Emax value, item COc1ccc(S(=O)(=O)N2CCN(C(C)c3nccc(OC4CCCC4)n3)CC2)cc1 (stereo not shown)
25 to 100%

Name the recorded Emax for CC(c1nc2ccccc2c(=O)n1C)N(CCN(C)S(=O)(=O)c1ccc(Cl)cc1)S(=O)(=O)c1ccc(Cl)cc1 (stereo not shown) .
< 25%

What does the data say about its Emax? Entry: COc1ccc(S(=O)(=O)N2CCN(C(C)c3nc(N4CCC5(CC4)OCCO5)c4ccccc4n3)CC2)cc1 (stereo not shown)
25 to 100%

Record request: Emax value, item COc1ccc(S(=O)(=O)NC2CCN(C(C)c3nc4ccccc4c(=O)n3C)C2)cc1 (stereo not shown)
< 25%

Which value of Emax has been reported for CC(c1nc2ccc(S(C)(=O)=O)cc2c(=O)n1C)N1CCN(S(=O)(=O)c2ccc(Br)cc2)CC1 (stereo not shown) in the records?
25 to 100%

Any idea what Emax was measured for COC(=O)c1ccccc1S(=O)(=O)N1CCN(C(C)c2nc3ccccc3c(=O)n2C)CC1 (stereo not shown) ?
< 25%

Which Emax value is on record for CC(c1ncc2ccccc2n1)N1CCN(S(=O)(=O)c2ccc(Br)cc2)CC1 (stereo not shown) ?
25 to 100%

---

# test target: ΔF508-CFTR (Homo sapiens, UniProt P13569, DEL508-508)
# Construct: expressed in transfected cells
# assay procedure: Membrane potential optical assay (FRET/VIPR), identification of correction compounds
# Assay type: cell-based
# assay context: relative efficacy
observable: Emax

Missing value: Emax, ΔF508-CFTR (Homo sapiens, UniProt P13569, DEL508-508), entry CC(NCCCN)c1nc2ccccc2c(=O)n1C (centres unmarked) [compound 185] . Fill in?
< 25%

Missing value: Emax, ΔF508-CFTR (Homo sapiens, UniProt P13569, DEL508-508), entry CC(c1nc2cc(Cl)ccc2c(=O)n1C)N1CCN(S(=O)(=O)c2ccc(S(C)(=O)=O)cc2)CC1 (centres unmarked) [compound 110] . Fill in?
< 25%

Query the reported Emax for ΔF508-CFTR (Homo sapiens, UniProt P13569, DEL508-508); item: CC(c1nc2cc(Cl)ccc2c(=O)n1C)N1CCN(S(=O)(=O)c2ccc(OC(F)(F)F)cc2)CC1 (centres unmarked) [compound 99]
25 to 100%

So what Emax did CC(c1nc2cc(Cl)ccc2c(=O)n1C)N1CCN(C(=O)Cc2ccccc2)CC1 (centres unmarked) [compound 112] get with ΔF508-CFTR (Homo sapiens, UniProt P13569, DEL508-508)?
< 25%

Observed Emax on ΔF508-CFTR (Homo sapiens, UniProt P13569, DEL508-508) for COc1ccc(S(=O)(=O)N2CCN(C(C)c3nc(N4CCSC4)c4ccccc4n3)CC2)cc1 (centres unmarked) [compound 393] , please.
> 100%

Checklist item: Emax tested on ΔF508-CFTR (Homo sapiens, UniProt P13569, DEL508-508), entry COc1ccc(S(=O)(=O)N2CCN(C(C)c3nc4ccc(Cl)cc4c(=O)n3C)CC2)cc1 (centres unmarked) [compound 62] , value?
25 to 100%

Field: Emax (ΔF508-CFTR (Homo sapiens, UniProt P13569, DEL508-508)). Entry: COc1ccc(S(=O)(=O)N2CCN(C(=O)c3nc(N4CCCCC4)c4ccccc4n3)CC2)cc1 [compound 402]
< 25%

Entry COc1ccc(S(=O)(=O)N2CCCN(C(C)c3nc4ccccc4c(=O)n3C)CC2)cc1 (centres unmarked) [compound 170] , system ΔF508-CFTR (Homo sapiens, UniProt P13569, DEL508-508): what Emax was measured?
25 to 100%

For ΔF508-CFTR (Homo sapiens, UniProt P13569, DEL508-508), provide Emax of CC(c1nc2ccc(C(N)=O)cc2c(=O)n1C)N1CCN(S(=O)(=O)c2ccc(Br)cc2)CC1 (centres unmarked) [compound 156] please.
25 to 100%

Please tell me: Emax of COc1ccc(S(=O)(=O)N2CCN(C(C)c3nc(Nc4ccccc4)c4ccccc4n3)CC2)cc1 (centres unmarked) [compound 366] , system ΔF508-CFTR (Homo sapiens, UniProt P13569, DEL508-508)?
25 to 100%

# get_value(readout= Emax, system= ΔF508-CFTR (Homo sapiens, UniProt P13569, DEL508-508)) for COc1ccc(S(=O)(=O)N2CCN(C(C)c3nc4ccc(Cl)cc4c(=O)n3C)CC2)cc1OC (centres unmarked) [compound 72]
25 to 100%

Emax of COc1ccc(S(=O)(=O)N2CCN(C(C)c3nc(OCCN(C)C)c4ccccc4n3)CC2)cc1 (centres unmarked) [compound 301] on ΔF508-CFTR (Homo sapiens, UniProt P13569, DEL508-508)?
25 to 100%

Request body: readout Emax, system ΔF508-CFTR (Homo sapiens, UniProt P13569, DEL508-508), query CC(=O)N1CCN(C(C)c2nc3ccc(Cl)cc3c(=O)n2C)CC1 (centres unmarked) [compound 60] . Return the value.
< 25%

// map CC(c1nc2ccccc2c(=O)n1C)N1CC2CC1CN2 (centres unmarked) [compound 186] to recorded Emax (system: ΔF508-CFTR (Homo sapiens, UniProt P13569, DEL508-508))
< 25%

Quick check: Emax on ΔF508-CFTR (Homo sapiens, UniProt P13569, DEL508-508), item CC(c1nc2ccccc2c(=O)n1C)N1CCN(S(=O)(=O)c2ccc(S(=O)(=O)c3ccccc3)s2)CC1 (centres unmarked) [compound 265] ?
< 25%

ΔF508-CFTR (Homo sapiens, UniProt P13569, DEL508-508) / Emax / Cc1cccc(CC(=O)N2CCN(C(C)c3nc4cc(Cl)ccc4c(=O)n3C)CC2)c1 (centres unmarked) [compound 113] : value?
< 25%

Hi! What's the reported Emax for CC(c1nc2cc(Cl)ccc2c(=O)n1C)N1CCN(S(=O)(=O)c2ccc(C(F)(F)F)cc2)CC1 (centres unmarked) [compound 98] on ΔF508-CFTR (Homo sapiens, UniProt P13569, DEL508-508)?
25 to 100%

So what Emax did Cc1ccccc1C(=O)N1CCN(C(C)c2nc3ccc(Cl)cc3c(=O)n2C)CC1 (centres unmarked) [compound 15] get with ΔF508-CFTR (Homo sapiens, UniProt P13569, DEL508-508)?
25 to 100%

Item CC(c1nc2ccccc2c(=O)n1C)N1CCN(S(=O)(=O)c2ccc(C(=O)O)cc2)CC1 (centres unmarked) [compound 240] with ΔF508-CFTR (Homo sapiens, UniProt P13569, DEL508-508) - Emax?
< 25%

Given the entry CC(c1nc2cc(Cl)ccc2c(=O)n1C)N1CCNCC1 (centres unmarked) [compound 90] , what Emax was observed with ΔF508-CFTR (Homo sapiens, UniProt P13569, DEL508-508)?
< 25%

Enter reported Emax observed with ΔF508-CFTR (Homo sapiens, UniProt P13569, DEL508-508) for CC(c1nc2ccccc2c(=O)n1C)N(CCN(C)S(=O)(=O)c1ccc(Br)cc1)S(=O)(=O)c1ccc(Br)cc1 (centres unmarked) [compound 202]
< 25%

Form field: Emax recorded for COc1ccc(S(=O)(=O)NC2CCN(C(C)c3nc4ccccc4c(=O)n3C)CC2)cc1 (centres unmarked) [compound 164] with ΔF508-CFTR (Homo sapiens, UniProt P13569, DEL508-508) (enter value)
25 to 100%

Item Cc1ccc(S(=O)(=O)N2CCN(C(C)c3nc4ccc(Br)cc4c(=O)n3C)CC2)cc1 (centres unmarked) [compound 115] with ΔF508-CFTR (Homo sapiens, UniProt P13569, DEL508-508) - Emax?
< 25%

Query for ΔF508-CFTR (Homo sapiens, UniProt P13569, DEL508-508): what Emax does the record show for COc1ccc(S(=O)(=O)N2CCN(C(C)c3nc(N4CCC(Cc5ccccc5)CC4)c4ccccc4n3)CC2)cc1 (centres unmarked) [compound 389] ?
> 100%

Missing value: Emax, ΔF508-CFTR (Homo sapiens, UniProt P13569, DEL508-508), entry COc1ccc(S(=O)(=O)N2CCN(C(C)c3nc(OC4CCCCC4)c4nccnc4n3)CC2)cc1 (centres unmarked) [compound 396] . Fill in?
> 100%

Look up Emax with ΔF508-CFTR (Homo sapiens, UniProt P13569, DEL508-508) for this compound: CCn1c(C(C)N2CCN(S(=O)(=O)c3cccc4ccccc34)CC2)nc2ccc(Cl)cc2c1=O (centres unmarked) [compound 35]
25 to 100%

Give the reported Emax for COc1ccc(S(=O)(=O)N2CCN(C3(c4nc(N5CCCCC5)c5ccccc5n4)CC3)CC2)cc1 [compound 387] (system: ΔF508-CFTR (Homo sapiens, UniProt P13569, DEL508-508)).
> 100%

Give Emax (ΔF508-CFTR (Homo sapiens, UniProt P13569, DEL508-508)) of the following compound: CC(c1nc2ccccc2c(=O)n1C)N1CCC(NS(=O)(=O)c2ccc(Br)cc2)C1 (centres unmarked) [compound 163]
< 25%

Param readout = Emax; param system = ΔF508-CFTR (Homo sapiens, UniProt P13569, DEL508-508); param query = COc1ccc2nc(C(C)N3CCN(S(=O)(=O)c4ccc(Br)cc4)CC3)n(C)c(=O)c2c1 (centres unmarked) [compound 132] ; response: value
> 100%

API: value(readout= Emax, system= ΔF508-CFTR (Homo sapiens, UniProt P13569, DEL508-508), query= CC(c1nc2ccccc2c(=O)n1C)N1CCC(N)CC1 (centres unmarked) [compound 180] )
< 25%

Param readout= Emax; system= ΔF508-CFTR (Homo sapiens, UniProt P13569, DEL508-508); entry= COc1ccc(S(=O)(=O)N2CCN(C(C)c3nc(N4CCCC(C)C4)c4ccccc4n3)CC2)cc1 (centres unmarked) [compound 305] ; returns value.
25 to 100%

For ΔF508-CFTR (Homo sapiens, UniProt P13569, DEL508-508), provide Emax of COc1ccc(S(=O)(=O)N2CCN(C(C)c3nc(N4CC(C)CC(C)C4)c4ccccc4n3)CC2)cc1 (centres unmarked) [compound 316] please.
25 to 100%

From: patent US8642609B2
